assay: collision cross section (TWIMS, N2) of ion [M+Na]+; higher = larger gas-phase ion cross section; details: ionization: ESI positive; LC: HILIC, pH 3.0 ammonium formate
I'd appreciate it if you could supply collision cross section values for the items below.
Just the number in Å², nothing appended.

Suppose we examine the compound "CCCCC/C=C\C/C=C\CCCCCCCC(=O)O" ; what collision cross section value has been reported?
174.95

Suppose we examine the compound "NCCC(=O)N[C@@H](Cc1cnc[nH]1)C(=O)O" ; what collision cross section value has been reported?
152.28

Suppose we examine the compound COc1cc(/C=C/C(=O)O)ccc1O [trans-ferulic acid] ; what collision cross section value has been reported?
161.96

Suppose we examine the compound "C[C@@H](CCC(=O)O)CC(=O)O" ; what collision cross section value has been reported?
136.22

Suppose we examine the compound "C/C(=C\C(=O)O)CC(=O)O" ; what collision cross section value has been reported?
132.11

Suppose we examine the compound "CCCCCCCCCCCCCCCCCC(=O)O" ; what collision cross section value has been reported?
186.65

Suppose we examine the compound "O[C@H]1[C@H](O)[C@@H](O)[C@H](O)[C@@H](O)[C@H]1O" ; what collision cross section value has been reported?
146

Suppose we examine the compound NC(=O)NC1NC(=O)NC1=O (stereo not given) ; what collision cross section value has been reported?
136.32

Suppose we examine the compound "OC[C@@H](O)[C@@H](O[C@H]1O[C@H](CO)[C@@H](O)[C@H](O)[C@H]1O)[C@H](O)[C@@H](O)CO" ; what collision cross section value has been reported?
174.13

Suppose we examine the compound "CCCCCCCCCCCCCCCC(=O)O" ; what collision cross section value has been reported?
179.96

---

I'd appreciate it if you could supply collision cross section values for the items below.
experiment: collision cross section (TWIMS, N2) of ion [M-H]-; higher = larger gas-phase ion cross section; conditions: ionization: ESI negative; LC: HILIC, pH 9.0 ammonium acetate
Record the result as a number with its unit.

Suppose we examine the compound Oc1ncnc2nc[nH]c12 [Hypoxanthine] ; what collision cross section value has been reported?
121.62 Å²

Suppose we examine the compound N[C@@H](CSSC[C@H](N)C(=O)O)C(=O)O [L-cystine] ; what collision cross section value has been reported?
143.16 Å²

Suppose we examine the compound Nc1ncnc2c1ncn2[C@@H]1O[C@@H]2COP(=O)(O)O[C@H]2[C@H]1O [cAMP] ; what collision cross section value has been reported?
171.56 Å²

Suppose we examine the compound N[C@@H]1[C@@H](O)[C@H](O)[C@@H](COP(=O)(O)O)O[C@@H]1O [Glucosamine 6-phosphate] ; what collision cross section value has been reported?
150.31 Å²

Suppose we examine the compound Nc1nc(=O)c2[nH]cnc2[nH]1 [Guanine] ; what collision cross section value has been reported?
125.12 Å²

Suppose we examine the compound O=C(O)/C=C(\CC(=O)O)C(=O)O [trans-aconitic acid] ; what collision cross section value has been reported?
118.87 Å²

Suppose we examine the compound CC(C)C[C@H](N)C(=O)O [L-leucine] ; what collision cross section value has been reported?
131.1 Å²

Suppose we examine the compound N[C@@H](CCSC[C@H](N)C(=O)O)C(=O)O [L-cystathionine] ; what collision cross section value has been reported?
142.48 Å²

Suppose we examine the compound OC[C@@H](O)[C@@H](O)[C@H](O)[C@H](O)CO [Mannitol] ; what collision cross section value has been reported?
134.82 Å²

Suppose we examine the compound O=C(O)CCC(=O)O [Succinic acid] ; what collision cross section value has been reported?
118.44 Å²

Suppose we examine the compound N=C(N)NCCC[C@H](N)C(=O)O [L-arginine] ; what collision cross section value has been reported?
136.62 Å²

---

assay: retention time on BEH HILIC column (20 min gradient, 0.4 mL/min); higher = later elution; settings: ionization: ESI negative; LC: HILIC, pH 9.0 ammonium acetate
Property: retention time on BEH HILIC column (min)
Just the number in min, nothing appended.

Suppose we examine the compound Nc1ncnc2c1ncn2[C@@H]1O[C@H](COP(=O)(O)OP(=O)(O)O)[C@@H](O)[C@H]1O [ADP] ; what retention time on BEH HILIC column value has been reported?
12.6

Suppose we examine the compound OC[C@@H](O)[C@H](O)[C@H](O)[C@@H](O)CO [Galactitol] ; what retention time on BEH HILIC column value has been reported?
4.84

Suppose we examine the compound CNC[C@H](O)c1ccc(O)c(O)c1 [Epinephrine] ; what retention time on BEH HILIC column value has been reported?
5.61

Suppose we examine the compound Nc1ncnc2c1ncn2[C@@H]1O[C@H](COP(=O)(O)OP(=O)(O)OP(=O)(O)O)[C@@H](O)[C@H]1O [ATP] ; what retention time on BEH HILIC column value has been reported?
12.3

Suppose we examine the compound O=C(O)CCC(=O)O [Succinic acid] ; what retention time on BEH HILIC column value has been reported?
1.5

Suppose we examine the compound O=C(O)Cc1c[nH]c2ccccc12 [Indoleacetic acid] ; what retention time on BEH HILIC column value has been reported?
0.88

Suppose we examine the compound Oc1ncnc2nc[nH]c12 [Hypoxanthine] ; what retention time on BEH HILIC column value has been reported?
2.31

Suppose we examine the compound CCCCC(C)C(=O)O (stereo not given) [2-methylhexanoic acid] ; what retention time on BEH HILIC column value has been reported?
0.8

Suppose we examine the compound CCCCCCCCC(=O)OC [Methyl nonanoate] ; what retention time on BEH HILIC column value has been reported?
1.03

Suppose we examine the compound OC[C@H]1O[C@H](O)[C@@H](O)[C@@H](O)[C@@H]1O [D-mannose] ; what retention time on BEH HILIC column value has been reported?
5.43

---

I'd appreciate it if you could supply collision cross section values for the items below.
assay: collision cross section (TWIMS, N2) of ion [M-H]-; higher = larger gas-phase ion cross section; conditions: ionization: ESI negative; LC: HILIC, pH 9.0 ammonium acetate
Just the number in Å², nothing appended.

Suppose we examine the compound "NCCc1c[nH]c2ccc(O)cc12" ; what collision cross section value has been reported?
137.88

Suppose we examine the compound CCOC(=O)CC(C)C(=O)OCC (stereo unspecified) [Diethyl methylsuccinate] ; what collision cross section value has been reported?
139.96

Suppose we examine the compound "CCCCCCCCCCCCCC(=O)O" ; what collision cross section value has been reported?
168.91

Suppose we examine the compound "O=C(O)CCC(=O)C(=O)O" ; what collision cross section value has been reported?
122.3

Suppose we examine the compound O=P(O)(O)OC[C@H]1O[C@](O)(COP(=O)(O)O)[C@@H](O)[C@@H]1O [Fructose 1,6-bisphosphate] ; what collision cross section value has been reported?
159.01

Suppose we examine the compound "N[C@@H](CCC(=O)N[C@@H](CSSC[C@H](NC(=O)CC[C@H](N)C(=O)O)C(=O)NCC(=O)O)C(=O)NCC(=O)O)C(=O)O" ; what collision cross section value has been reported?
216.04

Suppose we examine the compound "NC(=O)NCCC[C@H](N)C(=O)O" ; what collision cross section value has been reported?
135.18

Suppose we examine the compound O=C(O)/C=C(/CC(=O)O)C(=O)O [cis-aconitic] ; what collision cross section value has been reported?
126.73

Suppose we examine the compound "OC[C@@H](O)C(O)[C@H](O)CO" ; what collision cross section value has been reported?
126.54

Suppose we examine the compound "O[C@H]1[C@H](O)[C@@H](O)[C@H](O)[C@@H](O)[C@H]1O" ; what collision cross section value has been reported?
133.54

Suppose we examine the compound "OC[C@@H](O)[C@H](O)[C@H](O)[C@@H](O)CO" ; what collision cross section value has been reported?
133.44

Suppose we examine the compound Nc1c(O)cccc1C(=O)O [3-hydroxyanthranilic acid] ; what collision cross section value has been reported?
126.47

Suppose we examine the compound O=P(O)(O)O[C@H]1O[C@H](CO)[C@H](O)[C@H](O)[C@H]1O [Galactose 1-phosphate] ; what collision cross section value has been reported?
147.62

Suppose we examine the compound "NCCC[C@H](N)C(=O)O" ; what collision cross section value has been reported?
129.53

Suppose we examine the compound "C[C@@H](O)[C@H](N)C(=O)O" ; what collision cross section value has been reported?
121.54

Suppose we examine the compound "N[C@@H](CCC(=O)O)C(=O)O" ; what collision cross section value has been reported?
125.39

Suppose we examine the compound "CCCCCCCCCCCCCCCCCCCCCC(=O)O" ; what collision cross section value has been reported?
197.18

Suppose we examine the compound "CC/C=C\C/C=C\C/C=C\C/C=C\C/C=C\CCCC(=O)O" ; what collision cross section value has been reported?
190.11

Suppose we examine the compound "CCCCCC(=O)O" ; what collision cross section value has been reported?
129.59

Suppose we examine the compound "NCCCC[C@H](N)C(=O)O" ; what collision cross section value has been reported?
135.63

Suppose we examine the compound O=P(O)(O)O[C@H]1O[C@H](CO)[C@@H](O)[C@H](O)[C@H]1O [Glucose 1-phosphate] ; what collision cross section value has been reported?
147.62

Suppose we examine the compound "N[C@@H](CC(=O)O)C(=O)O" ; what collision cross section value has been reported?
120.3

Suppose we examine the compound "N[C@@H](CO)C(=O)O" ; what collision cross section value has been reported?
118.21

Suppose we examine the compound "CSCC[C@H](N)C(=O)O" ; what collision cross section value has been reported?
132.57

Suppose we examine the compound "CCCCC(=O)O" ; what collision cross section value has been reported?
123.48

Suppose we examine the compound "NCCC(=O)N[C@@H](Cc1cnc[nH]1)C(=O)O" ; what collision cross section value has been reported?
154.88

Suppose we examine the compound "O=c1cc[nH]c(=O)[nH]1" ; what collision cross section value has been reported?
115.77

Suppose we examine the compound "C[C@@H](CC(=O)O)C(=O)O" ; what collision cross section value has been reported?
121.94

Suppose we examine the compound "O=C(O)[C@@H]1CCCN1" ; what collision cross section value has been reported?
116.46

Suppose we examine the compound CCCCCCCCC(=O)OC [Methyl nonanoate] ; what collision cross section value has been reported?
144.8

Suppose we examine the compound "CC[C@H](C)C(=O)C(=O)O" ; what collision cross section value has been reported?
126.71

Suppose we examine the compound "Cc1c(C)c2c(c(C)c1O)CC[C@@](C)(CCC[C@H](C)CCC[C@H](C)CCCC(C)C)O2" ; what collision cross section value has been reported?
212.59

Suppose we examine the compound "O=C(O)CC(O)(CC(=O)O)C(=O)O" ; what collision cross section value has been reported?
128.76

Suppose we examine the compound Nc1c(C(=O)O)c2nc3c(C(=O)O)cccc3oc-2cc1=O [Cinnavalininate] ; what collision cross section value has been reported?
156.31

Suppose we examine the compound "NC(=O)C[C@H](N)C(=O)O" ; what collision cross section value has been reported?
123.48

Suppose we examine the compound "CCCCCCCCCCCCCCCCCCCC(=O)O" ; what collision cross section value has been reported?
193.88

Suppose we examine the compound O=P(O)(O)OC[C@H]1OC(O)[C@H](O)[C@@H](O)[C@@H]1O (stereo partly specified) [Glucose 6-phosphate] ; what collision cross section value has been reported?
148.86

Suppose we examine the compound O=C(O)[C@@H]1C[C@@H](O)CN1 [Hydroxyproline] ; what collision cross section value has been reported?
126.62

Suppose we examine the compound "CCCCCCCCCCCCCCCC(=O)O" ; what collision cross section value has been reported?
170.14

Suppose we examine the compound "Cc1cc2nc3c(=O)[nH]c(=O)nc-3n(C[C@H](O)[C@H](O)[C@H](O)COP(=O)(O)OP(=O)(O)OC[C@H]3O[C@@H](n4cnc5c(N)ncnc54)[C@H](O)[C@@H]3O)c2cc1C" ; what collision cross section value has been reported?
243.71

Suppose we examine the compound "OC[C@@H](O)[C@@H](O)[C@H](O)[C@@H](O)CO" ; what collision cross section value has been reported?
133.44

From: the supplement of paper PMC11127212
